Data origin: ChEMBL document CHEMBL3870346

- ASSAY METHOD TEXT: physchem
- STUDY CONDITIONS: 1-octanol/D2O, pH 7.4
Structures can show the parent of a compound that is named as a salt.
Hi! Just check whether logD is below 2. Below gives 1.0, equal or above gives 0.0.

- COMPOUND: "CC(=O)c1ccccc1"
  LABEL: 1.0

I'd appreciate it if you could check whether c1ccc(Oc2ccccc2)cc1 has logD smaller than 2.
0.0

I'd appreciate it if you could check whether COc1ccccc1 has logD smaller than 2.
0.0

I'd appreciate it if you could check whether Oc1ccccc1 has logD smaller than 2.
1.0

I'd appreciate it if you could check whether CCN(CC)CCOC(=O)c1ccc(N)cc1 [PROCAINE HYDROCHLORIDE] has logD smaller than 2.
1.0

I'd appreciate it if you could check whether COc1ccc(O)cc1 has logD smaller than 2.
1.0

----------
- ASSAY METHOD TEXT: n-Octanol/water partition coefficient, log P of the compound by HPLC method
- STUDY CONDITIONS: octanol/water
Listing of entries alongside the reported logP.
Respond numerically, and do not add a unit to the figure.

These solved cases illustrate the format of a correct answer.
- COMPOUND: "Cc1ccc(O)cc1"
  logP: 1.9
- COMPOUND: "c1ccc(-c2ccccc2)cc1"
  logP: 4

Attention now shifts to the item below.
Short answer for CC(=O)Nc1ccccc1 [ACETANILIDE] : logP was 1

----------
- ASSAY METHOD TEXT: physchem
- STUDY CONDITIONS: 1-octanol/D2O, pH 7.4
READOUT LABEL: logD
Respond numerically, and do not add a unit to the figure.

- MOLECULE: "CC(=O)Nc1ccccc1 [ACETANILIDE]"
  MEASURED: 0.7
- MOLECULE: "COC(=O)c1ccccc1 [METHYL BENZOATE]"
  MEASURED: 1.9
- MOLECULE: "Clc1ccccc1"
  MEASURED: 2.6

Short answer for O=[N+]([O-])c1ccccc1O [NITROPHENOLATE] : logD was 1.5

----------
- ASSAY METHOD TEXT: n-Octanol/water partition coefficient, log P of the compound by HPLC method
- STUDY CONDITIONS: n-octanol/water
READOUT LABEL: logP
Respond numerically, and do not add a unit to the figure.

These solved cases illustrate the format of a correct answer.
- COMPOUND: "Clc1ccccc1"
  READOUT LABEL: "logP"
  MEASURED: 2.8
- COMPOUND: "c1ccc2c(c1)ccc1ccccc12"
  READOUT LABEL: "logP"
  MEASURED: 4.5

Short answer for Cc1ccc(CO)cc1 : logP was 1.6

Short answer for COc1ccc(O)cc1 : logP was 1.3

Short answer for O=[N+]([O-])c1ccccc1O [NITROPHENOLATE] : logP was 1.8

Short answer for N#Cc1ccccc1 : logP was 1.6

Short answer for CCC(C)=O : logP was 0.3

----------
- ASSAY METHOD TEXT: physchem
- STUDY CONDITIONS: buffer, pH 7.4
READOUT LABEL: logD
Respond numerically, and do not add a unit to the figure.

These solved cases illustrate the format of a correct answer.
- MOL: "c1ccc(-c2ccccc2)cc1"
  logD: 4
- MOL: "Cc1ccc(CO)cc1"
  logD: 1.8

Short answer for COc1ccc(O)cc1 : logD was 1.3

----------
- ASSAY METHOD TEXT: physchem
- STUDY CONDITIONS: buffer, pH 7.4
READOUT LABEL: logD
Respond numerically, and do not add a unit to the figure.

These solved cases illustrate the format of a correct answer.
- COMPOUND: "Oc1ccccc1"
  READOUT LABEL: "logD"
  MEASURED: 1.3
- COMPOUND: "CCC(C)=O"
  READOUT LABEL: "logD"
  MEASURED: 0.3
- COMPOUND: "Clc1ccccc1"
  READOUT LABEL: "logD"
  MEASURED: 2.9
- COMPOUND: "CC(=O)Nc1ccccc1 [ACETANILIDE]"
  READOUT LABEL: "logD"
  MEASURED: 1.2
- COMPOUND: "c1ccc2c(c1)ccc1ccccc12"
  READOUT LABEL: "logD"
  MEASURED: 4.5

Short answer for Cc1ccc(O)cc1 : logD was 1.8

Short answer for c1ccc2ccccc2c1 : logD was 3.4

Short answer for COc1ccccc1 : logD was 2.3

----------
- ASSAY METHOD TEXT: physchem
- STUDY CONDITIONS: 1-octanol/D2O, pH 7.4
Listing of entries alongside the reported logD.
Respond numerically, and do not add a unit to the figure.

These solved cases illustrate the format of a correct answer.
- COMPOUND: "Cc1ccc(O)cc1"
  MEASURED: 2
- COMPOUND: "CC(=O)Nc1ccc(O)cc1"
  MEASURED: 0.2
- COMPOUND: "Cc1ccc(CO)cc1"
  MEASURED: 1.4
- COMPOUND: "OCc1ccccc1"
  MEASURED: 0.9
- COMPOUND: "N#Cc1ccccc1"
  MEASURED: 1.6

Short answer for CCOC(=O)c1ccccc1 [ETHYL BENZOATE] : logD was 2.4

Short answer for Nc1ccc(Cl)cc1 : logD was 1.8

Short answer for CCC(C)=O : logD was 0.4
